- Measurement description: Half life in Sprague-Dawley rat at 1 mg/kg, iv
- Assay type: ADME, organism-based
- Condition set: in vivo
Measurement type: half-life (h)

• COc1ncc(-c2nc3c(n2C(C)C)[C@H](c2ccc(Cl)cc2C)N(c2cc(Cl)ccc2C)C3=O)c(OC)n1 = 1.8

====

- Measurement description: Intrinsic clearance in human liver microsomes
- Format: ADME, microsome
Measurement type: CLH

- COc1ccccc1-n1nc2c(c1C(C)C)[C@H](c1ccc(Cl)cc1C)N(c1cc(Cl)ccc1C)C2=O: 115 µL/min/mg
- COc1ncc(-c2nc3c(n2C(C)C)[C@H](c2ccc(Cl)cc2C)N(c2cc(Cl)ccc2C)C3=O)c(OC)n1: 72 µL/min/mg
